Recorded EC50 for the following compounds
# TARGET_OF_ASSAY: Melanocyte-stimulating hormone receptor (Mus musculus)
# Sequence (Q01727 whole entry): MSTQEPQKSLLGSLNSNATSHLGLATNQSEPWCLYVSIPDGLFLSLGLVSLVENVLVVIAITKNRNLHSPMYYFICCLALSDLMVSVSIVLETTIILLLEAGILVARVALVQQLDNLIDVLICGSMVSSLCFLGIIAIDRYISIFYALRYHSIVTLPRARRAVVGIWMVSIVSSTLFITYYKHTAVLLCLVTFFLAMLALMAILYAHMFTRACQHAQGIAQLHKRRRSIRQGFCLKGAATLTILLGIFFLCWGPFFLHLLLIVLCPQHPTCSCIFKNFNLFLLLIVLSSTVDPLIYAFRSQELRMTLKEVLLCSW
# ASSAY_NOTES: Agonist activity to the mouse Melanocortin-1 receptor (mMC1R)
PROPERTY: EC50 (µM)

INSERT INTO results (structure_notation, units, obs_value) VALUES
  ('CC(=O)N[C@@H](Cc1cnc[nH]1)C(=O)N[C@H](Cc1cccc2ccccc12)C(=O)N[C@@H](CCCNC(=N)N)C(=O)N[C@@H](Cc1c[nH]c2ccccc12)C(N)=O', 'µM', 0.356),
  ('CC(=O)N[C@@H](Cc1c[nH]cn1)C(=O)N[C@@H](C(=O)N[C@@H](CCCN=C(N)N)C(=O)N[C@@H](Cc1c[nH]c2ccccc12)C(N)=O)C(c1ccccc1)c1ccccc1', 'µM', 1.5),
  ('CC(=O)N[C@@H](Cc1c[nH]cn1)C(=O)N[C@H](Cc1c[nH]c2ccccc12)C(=O)N[C@@H](CCCN=C(N)N)C(=O)N[C@@H](Cc1c[nH]c2ccccc12)C(N)=O', 'µM', 25.1),
  ('CC(=O)N[C@@H](Cc1cnc[nH]1)C(=O)N[C@H](C(=O)N[C@@H](CCCNC(=N)N)C(=O)N[C@@H](Cc1c[nH]c2ccccc12)C(N)=O)C(c1ccccc1)c1ccccc1', 'µM', 19),
  ('CC(=O)N[C@@H](Cc1cnc[nH]1)C(=O)N[C@H](C(=O)N[C@@H](CCCNC(=N)N)C(=O)N[C@@H](Cc1c[nH]c2ccccc12)C(N)=O)c1ccccc1', 'µM', 14.7);

Provenance of the data: ChEMBL document CHEMBL1135504
